Attribution: paper PMC10397247

- target.or.system: T1, 4H3844-AA
- T1 chain: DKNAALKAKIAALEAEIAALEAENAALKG
- test: two-hybrid library CCmax;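 note: natural log of median RNA to DNA barcode read ratio; higher means stronger binding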
- condition.set: mean of both orientations
Threshold-based label: interaction score under 0.4 gives TRUE, interaction score not under 0.4 gives FALSE.

binder | category
DKNAALEAKIAALEAEIAALKAKNAALEG [4H3343-AA] | TRUE
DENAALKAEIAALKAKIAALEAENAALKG [4H1636-AA] | TRUE
DEIAALEAKIAALKAEIAALKAKNAALEG [4H335-AA] | FALSE
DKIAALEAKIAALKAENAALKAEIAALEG [4H2393-AA] | FALSE
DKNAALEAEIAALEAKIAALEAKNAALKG [4H3112-AA] | FALSE
DKIAALKAEIAALEAEIAALKAKNAALEG [4H2575-AA] | TRUE
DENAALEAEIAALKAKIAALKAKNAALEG [4H1135-AA] | FALSE
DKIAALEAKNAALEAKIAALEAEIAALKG [4H2466-AA] | TRUE
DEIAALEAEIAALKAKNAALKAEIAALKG [4H122-AA] | TRUE
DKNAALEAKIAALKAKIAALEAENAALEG [4H3427-AA] | FALSE
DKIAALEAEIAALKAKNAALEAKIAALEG [4H2165-AA] | TRUE
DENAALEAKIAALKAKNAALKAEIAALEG [4H1401-AA] | TRUE
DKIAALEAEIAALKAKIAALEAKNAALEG [4H2151-AA] | TRUE
DEIAALEAKIAALEAKNAALKAKIAALEG [4H317-AA] | TRUE
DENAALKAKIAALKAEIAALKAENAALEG [4H1867-AA] | FALSE
DKIAALKAKNAALEAEIAALEAKIAALEG [4H2949-AA] | TRUE
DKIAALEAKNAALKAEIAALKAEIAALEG [4H2505-AA] | TRUE
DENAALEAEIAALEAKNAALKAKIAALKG [4H1086-AA] | TRUE
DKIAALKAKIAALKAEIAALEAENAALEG [4H2883-AA] | FALSE
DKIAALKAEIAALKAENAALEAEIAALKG [4H2642-AA] | TRUE
DKNAALKAEIAALKAEIAALEAKNAALEG [4H3655-AA] | TRUE
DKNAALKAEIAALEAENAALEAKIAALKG [4H3606-AA] | TRUE
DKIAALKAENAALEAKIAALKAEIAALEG [4H2729-AA] | TRUE
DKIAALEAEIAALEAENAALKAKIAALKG [4H2078-AA] | TRUE
DEIAALEAKIAALKAENAALEAKIAALKG [4H342-AA] | FALSE
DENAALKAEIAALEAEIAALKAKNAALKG [4H1552-AA] | FALSE
